Property: In vitro activity compared to native peptide (%) vs GLP-1; scope: individual binders
# test_system: human GLP-1 receptor (human, UniProt P43220 24-463)
# assay_comment: cell-based or functional assay
Bridge positions count the residues as written; N and C are the ends. Square brackets hold non-standard residues; d marks the D form. Ends that are not written are not given here. * marks the point of attachment. Acetyl(2-(4-imidazolyl)) = O=C(Cc1c[nH]cn1)*; Aib = CC(C)(N)C(=O)O
observable: In vitro activity compared to native peptide (%) vs GLP-1

>>> print(df.to_string())
                                     binder  relation_symbol  reported_measurement
0  H[Aib]QGTFTSDYSIAMDEIHQKDFVNWLLAQKC (bridge 16-20) [Triple agonist of SEQ ID NO: 33]                =                  24.5
1  {Acetyl(2-(4-imidazolyl))}-GQGTFTSDLSKQMDSERAREFIEWLKNTGPSSGAPPPSHG [Triple agonist of SEQ ID NO: 18]                <                   0.1
2  H[Aib]QGTFTSDYSKYLDEKRQKEFVQWLLNTC (bridge 16-20) [Triple agonist of SEQ ID NO: 51]                =                  14.4
3  Y[Aib]QGTFTSDYSKYLDECAAKEFVQWLLDHHPSSGQPPPS (bridge 16-20) [Triple agonist of SEQ ID NO: 64]                =                  64.6
4  {Acetyl(2-(4-imidazolyl))}-GEGTFTSDLSKYLDSRRQQLFVQWLKAGGPSSGAPPPSHG [Triple agonist of SEQ ID NO: 11]                =                   1.4
